- tested target: Akt3 (Homo sapiens)
- Construct: unspecified tag, removed (detagged) (cleaved yes); purchased SignalChem and Proteros (Akt3); Merck Millipore (PDK1) 14-452 (PDK1); none given for Akt3
- Sequence (Q9Y243 whole entry): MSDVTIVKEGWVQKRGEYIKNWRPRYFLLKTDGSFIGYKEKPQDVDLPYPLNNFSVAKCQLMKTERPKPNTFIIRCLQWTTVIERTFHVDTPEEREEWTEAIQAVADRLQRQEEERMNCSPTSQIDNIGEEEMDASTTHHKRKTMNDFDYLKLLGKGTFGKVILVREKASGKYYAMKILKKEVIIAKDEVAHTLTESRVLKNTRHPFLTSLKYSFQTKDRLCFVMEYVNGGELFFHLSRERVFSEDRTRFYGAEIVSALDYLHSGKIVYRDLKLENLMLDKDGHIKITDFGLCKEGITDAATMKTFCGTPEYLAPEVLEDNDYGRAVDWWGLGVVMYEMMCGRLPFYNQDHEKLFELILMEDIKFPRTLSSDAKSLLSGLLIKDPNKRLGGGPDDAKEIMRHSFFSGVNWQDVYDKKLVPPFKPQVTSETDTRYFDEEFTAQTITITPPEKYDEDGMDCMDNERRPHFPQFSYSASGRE
- protocol summary: Akt activation assay (PDK1-mediated activation, LANCE Ultra crosstide TR-FRET), Akt3
- Assay type: biochemical
- assay conditions: read-out: Biological Assay 1 IC50 (nM) Akt3
Classify: Criterion met when IC50 is strictly less than 100 nM; Criterion not met when IC50 is not.

| compound | category |
| --- | --- |
| CC(=O)N[C@H]1CC[C@H](CC(=O)Nc2cnc(-c3ccc(C4(N)COC4)cc3)c(-c3ccccc3)c2)CC1 | Criterion not met |
| COC(=O)N(C)[C@H]1CC[C@H](C(C)C(=O)Nc2cnc(-c3ccc(C(C)(C)N)cc3)c(-c3ccccc3)c2)CC1 (stereo partly shown) | Criterion not met |
| N[C@]1(c2ccc(-c3ncc(NC(=O)C[C@H]4CC[C@H](N5CCOC5=O)CC4)cc3-c3ccccc3)cc2)C[C@@H](F)C1 | Criterion met |

Query: Does CCN(C(=O)OC)[C@H]1CC[C@H](CC(=O)Nc2cc(-c3ccccc3)c(-c3ccc([C@]4(N)C[C@](C)(O)C4)cc3)cn2)CC1 have IC50 strictly under 100 nM?
Reply: Criterion met

Query: IC50 under 100 nM? Item: N[C@]1(c2ccc(-c3cnc(NC(=O)C[C@H]4CC[C@H](N5CCOC5=O)CC4)cc3-c3ccccc3)cc2)C[C@@H](F)C1
Reply: Criterion met

###

Entries and their measured IC50 follow.
- tested target: Akt2 (Homo sapiens, UniProt P31751)
- Construct: unspecified tag, removed (detagged) (cleaved yes); purchased SignalChem and Proteros (Akt2); Merck Millipore (PDK1) 14-452 (PDK1); none given for Akt2
- Sequence (P31751 whole entry): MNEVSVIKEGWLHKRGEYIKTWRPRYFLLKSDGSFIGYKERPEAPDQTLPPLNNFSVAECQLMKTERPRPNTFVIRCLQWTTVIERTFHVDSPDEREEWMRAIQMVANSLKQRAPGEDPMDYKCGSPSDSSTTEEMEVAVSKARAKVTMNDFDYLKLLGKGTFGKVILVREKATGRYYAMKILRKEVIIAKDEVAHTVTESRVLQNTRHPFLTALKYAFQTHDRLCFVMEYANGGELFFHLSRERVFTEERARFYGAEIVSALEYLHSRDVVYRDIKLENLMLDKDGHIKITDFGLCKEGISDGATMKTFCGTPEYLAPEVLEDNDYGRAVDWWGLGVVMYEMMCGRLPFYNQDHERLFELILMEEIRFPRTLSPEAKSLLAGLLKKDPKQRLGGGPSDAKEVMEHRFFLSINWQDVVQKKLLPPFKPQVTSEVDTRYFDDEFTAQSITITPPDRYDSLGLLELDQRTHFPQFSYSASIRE
- protocol summary: Akt activation assay (PDK1-mediated activation, LANCE Ultra crosstide TR-FRET), Akt2
- Assay type: biochemical
- assay conditions: read-out: Biological Assay 1 IC50 (nM) Akt2
Report the figure in nM without appending any unit label.

| compound | IC50, nM |
| --- | --- |
| CCOC(=O)N(C)[C@H]1CC[C@H](CC(=O)Nc2cc(-c3ccsc3)c(-c3ccc([C@]4(N)C[C@](C)(O)C4)cc3)cn2)CC1 [Example A90] | 300 |
| COC(=O)N(C)[C@H]1CC[C@H](CC(=O)Nc2cc(-c3ccccc3)c(-c3ccc(C(C)(C)N)cc3)nn2)CC1 [Example 56] | 10000 |

Query: Using the record for COC(=O)N(C)[C@H]1CC[C@H](CC(=O)Nc2cc(-c3ccccc3)c(-c3ccc([C@]4(N)C[C@H](F)C4)cc3)nn2)CC1 [Example A60] , report its IC50.
Reply: 630

###

Parameter: IC50. Scope: all listed entries.
- tested target: p-Akt1 in LNCaP cells (Homo sapiens)
- Construct: SureFire assays to detect cellular p-Akt1, p-Akt2 and p-Akt3 levels in WM115 cells (Akt2/3) and LNCaP cells (Akt1); endogenous in cells; host or cells: LNCaP (ECACC 89110211)
- Sequence (P31749 whole entry): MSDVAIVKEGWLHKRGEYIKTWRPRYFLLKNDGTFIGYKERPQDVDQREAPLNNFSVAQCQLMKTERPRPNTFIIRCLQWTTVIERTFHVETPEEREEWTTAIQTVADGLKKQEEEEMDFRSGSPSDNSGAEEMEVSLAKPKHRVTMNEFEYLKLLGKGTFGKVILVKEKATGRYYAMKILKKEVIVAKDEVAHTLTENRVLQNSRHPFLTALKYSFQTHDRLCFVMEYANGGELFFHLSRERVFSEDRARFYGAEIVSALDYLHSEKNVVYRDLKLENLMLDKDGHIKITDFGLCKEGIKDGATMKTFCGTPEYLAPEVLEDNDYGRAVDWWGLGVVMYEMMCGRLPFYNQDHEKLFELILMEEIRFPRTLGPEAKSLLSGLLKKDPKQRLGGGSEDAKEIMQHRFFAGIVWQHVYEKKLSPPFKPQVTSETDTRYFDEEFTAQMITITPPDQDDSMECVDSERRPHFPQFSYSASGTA
- protocol summary: Phospho-Akt cellular SureFire assay, p-Akt1 in LNCaP cells
- Format: cell-based
- assay conditions: read-out: Biological Assay 2 IC50 (nM) Akt1 LNCaP
- Description: Biological Assay 2: Phospho-Akt (p-Akt) Cellular SureFire Assays The following describes SureFire assays to detect cellular p-Akt1, p-Akt2 and p-Akt3 levels in WM115 cells (Akt2/3) and LNCaP cells (Akt1). […] 2 μL dilution buffer, supplemented with a 1/20 dilution of donor beads was added to each well and incubated for a further 2 h. Plates were read with the EnVision® Multilabel Plate Reader and using the AlphaScreen settings. Compound IC50 was determined using a 4-parameter equation.

Query: Give IC50 (p-Akt1 in LNCaP cells (Homo sapiens)) of the following molecule: CC(=O)N[C@H]1CC[C@H](CC(=O)Nc2cnc(-c3ccc([C@H](N)C(F)F)cc3)c(-c3ccccc3)c2)CC1 [Example A12]
Reply: > 20000 nM

Query: Checklist item: IC50 tested on p-Akt1 in LNCaP cells (Homo sapiens), entry COC(=O)N(C)[C@H]1CC[C@H](C(C)C(=O)Nc2cnc(-c3ccc(C(C)(C)N)cc3)c(-c3ccccc3)c2)CC1 (stereo partly shown) [Example A45] , value?
Reply: > 30000 nM

Query: Provide the documented IC50 with p-Akt1 in LNCaP cells (Homo sapiens) as the system for CC(C)(N)c1ccc(-c2nnc(NC(=O)C[C@H]3CC[C@H](N4CCOC4=O)CC3)nc2-c2ccccc2)cc1 [Example 69]
Reply: > 30000 nM

Query: Request body: readout IC50, system p-Akt1 in LNCaP cells (Homo sapiens), query CN([C@H]1CC[C@H](CC(=O)Nc2cnc(-c3ccc(C4(N)CCC4)cc3)c(-c3ccsc3)c2)CC1)S(C)(=O)=O [Example 17] . Return the value.
Reply: 7100 nM

The reported numbers originate from patent US10336702B2.
